For each record, write down the corresponding Fold increase h-GABA-A α2β2γ1 oocyte @ 30-fold Ki.
Molecular target: h-GABAA α2β2γ1 (Homo sapiens, UniProt P47869+Q8N1C3)
Assay: Two-electrode voltage clamp electrophysiology in Xenopus oocytes, modulation of GABA EC20 current
Format: cell-based
Parameters: host or cells: Xenopus laevis oocytes, RNA micro-injection
Conditions: Table 2; compound at approx. 30-fold its Ki α2β2γ1, GABA EC20, Xenopus oocytes
Please give only the number in your answer, with no unit.

Ask | Any idea what its Fold increase h-GABA-A α2β2γ1 oocyte @ 30-fold Ki is? The compound is "Fc1cccc(F)c1C1=NCc2nnc(-c3ccncn3)n2-c2ccc(Cl)c(Cl)c21"
Reply | 1.49

Ask | Can you share its Fold increase h-GABA-A α2β2γ1 oocyte @ 30-fold Ki? I mean this compound: "Cc1ccc2c(c1Cl)C(c1c(F)cccc1F)=NCc1n[nH]c(=O)n1-2"
Reply | 1.68

Ask | Record request: Fold increase h-GABA-A α2β2γ1 oocyte @ 30-fold Ki value, item "Fc1cccc(F)c1C1=NCc2nnc(-c3cccnn3)n2-c2ccc(I)c(Cl)c21"
Reply | 2.33

###

Target: h-GABAA α1β3γ2 (Homo sapiens, UniProt P14867+P18507)
Construct: expressed in transfected cells; host or cells: HEK293F cells, membranes
Test: Radioligand binding assay, [3H]Flumazenil competition, HEK293F membranes
Experimental: The affinity of compounds at GABAA γ2 subunit-containing receptors was measured by competition for [^3H]Flumazenil (81.1 Ci/mmol; Roche) binding to HEK293F cells expressing human (transiently transfected) receptors of composition α1β3γ2. Harvested pellets from HEK293F cells expressing the different GABAA γ2 receptor subtypes were resuspended in Mannitol Buffer pH 7.2-7.4 and processed as described above for the cells expressing the GABAA γ1 subunit-containing receptors. […]
Would you kindly list Ki for each of these compounds?
Your answer should be a plain number; it is taken to be in nM.

Ask | Could you share what Ki was measured for "Cc1ccc2c(c1Cl)C(c1c(F)cccc1F)=NCc1nnc(-c3ccncn3)n1-2" , tested on h-GABAA α1β3γ2 (Homo sapiens, UniProt P14867+P18507)?
Reply | 1470

Ask | For the record Cc1nnc2n1-c1ccccc1C(c1c(F)cccc1F)=NC2 [RE-C, reference compound] , what value of Ki is listed for h-GABAA α1β3γ2 (Homo sapiens, UniProt P14867+P18507)?
Reply | 5.8

Ask | Provide value of Ki for this record tested with h-GABAA α1β3γ2 (Homo sapiens, UniProt P14867+P18507): "Fc1cccnc1C1=NCc2nncn2-c2ccc(Cl)c(Cl)c21"
Reply | 1110

Ask | Provide value of Ki for this record tested with h-GABAA α1β3γ2 (Homo sapiens, UniProt P14867+P18507): "Fc1cccc(F)c1C1=NCc2nncn2-c2ccc(C(F)F)c(Cl)c21"
Reply | 1200

###

Molecular target: h-GABAA α2β2γ1 (Homo sapiens, UniProt P47869+Q8N1C3)
Sequence (P47869 29-451): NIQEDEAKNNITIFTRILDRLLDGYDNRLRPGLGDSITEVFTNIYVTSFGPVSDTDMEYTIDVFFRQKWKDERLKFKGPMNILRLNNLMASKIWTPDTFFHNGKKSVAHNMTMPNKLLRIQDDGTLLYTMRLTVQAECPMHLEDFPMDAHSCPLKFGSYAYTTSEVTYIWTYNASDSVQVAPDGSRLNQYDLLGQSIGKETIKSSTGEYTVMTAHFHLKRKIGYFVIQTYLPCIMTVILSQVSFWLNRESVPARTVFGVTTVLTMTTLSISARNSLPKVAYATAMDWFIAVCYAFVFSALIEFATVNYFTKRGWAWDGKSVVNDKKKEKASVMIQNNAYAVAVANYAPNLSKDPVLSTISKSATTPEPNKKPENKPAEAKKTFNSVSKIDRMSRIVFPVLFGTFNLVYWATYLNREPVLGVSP
Sequence (P47870 25-512 partner limits assumed): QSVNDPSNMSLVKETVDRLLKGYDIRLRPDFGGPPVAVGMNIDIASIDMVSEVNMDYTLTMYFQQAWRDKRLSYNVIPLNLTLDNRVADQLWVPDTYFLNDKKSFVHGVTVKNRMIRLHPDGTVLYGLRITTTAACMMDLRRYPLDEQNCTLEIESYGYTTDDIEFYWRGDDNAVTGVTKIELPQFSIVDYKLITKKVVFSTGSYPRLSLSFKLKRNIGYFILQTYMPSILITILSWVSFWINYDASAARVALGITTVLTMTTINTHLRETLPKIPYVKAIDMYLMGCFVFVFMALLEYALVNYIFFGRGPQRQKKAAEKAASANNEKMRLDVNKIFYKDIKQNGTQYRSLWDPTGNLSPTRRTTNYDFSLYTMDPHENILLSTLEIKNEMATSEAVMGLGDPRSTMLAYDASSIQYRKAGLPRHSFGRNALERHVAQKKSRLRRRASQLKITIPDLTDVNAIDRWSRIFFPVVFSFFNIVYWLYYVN
Sequence (Q8N1C3 36-465): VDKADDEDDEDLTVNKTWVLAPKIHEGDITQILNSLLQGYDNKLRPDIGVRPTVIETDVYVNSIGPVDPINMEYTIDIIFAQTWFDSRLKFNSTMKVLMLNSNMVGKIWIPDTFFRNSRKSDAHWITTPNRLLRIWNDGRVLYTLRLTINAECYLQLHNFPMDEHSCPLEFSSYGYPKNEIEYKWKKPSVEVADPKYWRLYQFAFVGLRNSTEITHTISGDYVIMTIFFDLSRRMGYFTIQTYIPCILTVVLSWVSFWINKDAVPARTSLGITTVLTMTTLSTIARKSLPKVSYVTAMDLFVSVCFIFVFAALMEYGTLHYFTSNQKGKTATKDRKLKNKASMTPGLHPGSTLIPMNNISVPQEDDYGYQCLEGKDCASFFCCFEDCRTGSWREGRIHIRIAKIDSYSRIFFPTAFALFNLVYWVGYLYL
Assay: Two-electrode voltage clamp electrophysiology in Xenopus oocytes, modulation of GABA EC20 current
Assay type: cell-based
Parameters: host or cells: Xenopus laevis oocytes, RNA micro-injection
Conditions: Table 2; % modulation of GABA EC20 = 100*(Fold increase−1); compound at approx. 30-fold Ki
So I've got a bunch of compounds here, and I need their Efficacy (GABA)% values.
Could you give me the number in %? Just the number is fine.

Ask | # lookup: Efficacy (GABA)% of Fc1ccccc1C1=NCc2nnc(-c3cccnn3)n2-c2ccc(Cl)c(Cl)c21 [Example 10]
Reply | 69

Ask | What value of measured Efficacy (GABA)% is listed for Fc1cccnc1C1=NCc2nnc(-c3cccnn3)n2-c2ccc(C(F)(F)F)c(Cl)c21 [Example 72] ?
Reply | 630

Ask | GET /values?readout=Efficacy (GABA)%&item= Fc1cccc(F)c1C1=NCc2nncn2-c2ccc(Cl)c(Cl)c21 [Example 15]
Reply | 60

Ask | Item under review: Fc1cccnc1C1=NCc2nnc(-c3cccnn3)n2-c2ccc(Cl)c(Cl)c21 [Example 54] . Reported Efficacy (GABA)%?
Reply | 602

Ask | Tell me the measured Efficacy (GABA)% of CC(F)(F)c1ccc2c(c1Cl)C(c1c(F)cccc1F)=NCc1nncn1-2 [Example 21] , please.
Reply | 100

Ask | Give the measured Efficacy (GABA)% of Cc1nnc2n1-c1ccc(C3CC3)c(Cl)c1C(c1c(F)cccc1F)=NC2 [Example 6] .
Reply | 106

Ask | Item under review: COc1ccc2c(c1Cl)C(c1c(F)cccc1F)=NCc1nnc(-c3ccncn3)n1-2 [Example 61] . Reported Efficacy (GABA)%?
Reply | 61

Ask | Field request: Efficacy (GABA)% | item: Cl.NCc1nnc2n1-c1ccc(Br)c(Cl)c1C(c1c(F)cccc1F)=NC2 [Example 36]
Reply | 33

Ask | State the recorded Efficacy (GABA)% for this entry: Fc1cccc(F)c1C1=NCc2nnc(-c3ccncn3)n2-c2ccc(Br)c(Br)c21 [Example 43]
Reply | 23

Ask | May I ask what Efficacy (GABA)% has been recorded for Fc1cccnc1C1=NCc2nnc(C3CC3)n2-c2ccc(Br)c(Cl)c21 [Example 77] ?
Reply | 66

Ask | Given the compound COc1ccc2c(c1Cl)C(c1c(F)cccc1F)=NCc1nnc(-c3cccnn3)n1-2 [Example 57] , what is its reported Efficacy (GABA)%?
Reply | 149

Ask | Sample Cn1cc(-c2nnc3n2-c2ccc(Cl)c(Cl)c2C(c2ncccc2F)=NC3)cn1 [Example 58] — what was its Efficacy (GABA)%?
Reply | 67

Ask | For the compound Cc1nnc2n1-c1ccc(Br)c(Cl)c1C(c1c(F)cccc1Cl)=NC2 [Example 50] , what Efficacy (GABA)% is on record?
Reply | 54

Ask | What value of Efficacy (GABA)% has been recorded for this entry: Cc1nnc2n1-c1ccc(C(F)(F)F)c(Cl)c1C(c1c(F)cccc1F)=NC2 [Example 40]
Reply | 75

Ask | Give its Efficacy (GABA)% value. Item: Fc1cccc(F)c1C1=NCc2nnc(-c3cccnn3)n2-c2ccc(I)c(Cl)c21 [Example 39]
Reply | 133

Ask | Quick check: Efficacy (GABA)% of Fc1cccc(F)c1C1=NCc2nnc(-c3cccnn3)n2-c2ccc(Br)c(Cl)c21 [Example 104] ?
Reply | 94

Ask | Please report the recorded Efficacy (GABA)% for Cc1ccc2c(c1Cl)C(c1c(F)cccc1F)=NCc1nnc(C)n1-2 [Example 20] .
Reply | 57

Ask | Please report the recorded Efficacy (GABA)% for Cn1cc(-c2nnc3n2-c2ccc(C(F)(F)F)c(Cl)c2C(c2ncccc2F)=NC3)cn1 [Example 70] .
Reply | 78

Ask | Recorded Efficacy (GABA)% of Cc1nnc2n1-c1ccc(Cl)c(Cl)c1C(c1ccccc1F)=NC2 [Example 4] , please.
Reply | 73

Ask | Need Efficacy (GABA)% of Fc1cccc(F)c1C1=NCc2nnc(-c3ccncn3)n2-c2ccc(Cl)c(Cl)c21 [Example 12] , thanks.
Reply | 49

Ask | Value lookup for Efficacy (GABA)%; key = Fc1cccc(F)c1C1=NCc2nnc(-c3cccnn3)n2-c2ccc(Br)c(Br)c21 [Example 42]
Reply | 97
